Tested on: KMS-28BM cells (myeloma cell line)
Experiment: Cell death inducing effect on KMS-28BM cells, trypan blue staining
Format: cell-based
Details: KMS-28BM (myeloma), cell viability
Description: KMS-28BM cells (myeloma cell line) were cultured under 5% CO2 at 37° C. The culture medium used RPMI-1640 medium with 100 μg/mL penicillin, 100 U/mL streptomycin and fetal bovine serum. KMS-28BM cells were seeded into 96-well plates and incubated with each concentration of the compounds was added, and cell viability was determined by the trypan blue staining. For controls, only 0.5% DMSO (diluted in PBS) used to dissolve the compounds was added. […]
pIC50: −log10 of the molar value.

- mol.smiles: "CCCCO[C@@H]1[C@@H](OCCCC)[C@H](c2c(O)cc3oc4cc(O)c(O)cc4c(=O)c3c2O)O[C@H](COC(=O)CCC)[C@H]1OC(=O)CCC"
  pIC50: 7.15
- mol.smiles: "CCCCC(=O)OC[C@H]1O[C@@H](c2c(O)cc3oc4cc(O)c(O)cc4c(=O)c3c2OC(=O)CCCC)[C@H](OC(=O)CCCC)[C@@H](OC(=O)CCCC)[C@@H]1OC(=O)CCCC"
  pIC50: 6.24
- mol.smiles: "O=c1c2cc(O)c(O)cc2oc2cc(O)cc(OCCO)c12"
  pIC50: 6.05
- mol.smiles: "CCCC(=O)OC[C@H]1O[C@@H](c2c(OC(=O)CCC)cc3oc4cc(OC(=O)CCC)c(OC(=O)CCC)cc4c(=O)c3c2OC(=O)CCC)[C@H](OC(=O)CCC)[C@@H](OC(=O)CCC)[C@@H]1OC(=O)CCC"
  pIC50: 5.72
- mol.smiles: "CC(C)(C)C(=O)OC[C@H]1O[C@@H](c2c(O)cc3oc4cc(O)c(O)cc4c(=O)c3c2O)[C@H](OC(=O)C(C)(C)C)[C@@H](OC(=O)C(C)(C)C)[C@@H]1OC(=O)C(C)(C)C"
  pIC50: 6.77

----------
System: phospho-IKK
Assay: Immunoblotting of phospho-IKK in KMS-28BM cells
Type: cell-based
Conditions: 72 h, vs control, same concentrations as for phospho-NIK (0.005-100 μM)
measurement.type: phospho-IKK band density (anti-phospho-IKK antibody)

- mol.smiles: "CCCCC(=O)OC[C@H]1O[C@@H](c2c(OC(=O)CCCC)cc3oc4cc(OC(=O)CCCC)c(OC(=O)CCCC)cc4c(=O)c3c2OC(=O)CCCC)[C@H](OC(=O)CCCC)[C@@H](OC(=O)CCCC)[C@@H]1OC(=O)CCCC"
  measured.result: "decrease in band density"
- mol.smiles: "C=CCOc1cc(O)cc2oc3cc(O)c(O)cc3c(=O)c12"
  measured.result: "decrease in band density"
- mol.smiles: "CCCCC(=O)OC[C@H]1O[C@@H](c2c(O)cc3oc4cc(O)c(O)cc4c(=O)c3c2OC(=O)CCCC)[C@H](OC(=O)CCCC)[C@@H](OC(=O)CCCC)[C@@H]1OC(=O)CCCC"
  measured.result: "decrease in band density"

----------
System: SU-DHL-4 cells (diffuse large B-cell lymphoma)
Assay: Cell death inducing effect on SU-DHL-4 cells, trypan blue staining
Assay type: cell-based
Details: Homo sapiens; SU-DHL-4 (DLBCL), cell viability
pIC50: −log10 of the molar value.

- mol.smiles: "O=c1c2cc(O)c(O)cc2oc2cc(O)cc(OCCO)c12"
  assayed.system: "SU-DHL-4 cells (diffuse large B-cell lymphoma)"
  pIC50: 5.02
- mol.smiles: "CC(C)(C)C(=O)OC[C@H]1O[C@@H](c2c(O)cc3oc4cc(O)c(O)cc4c(=O)c3c2O)[C@H](OC(=O)C(C)(C)C)[C@@H](OC(=O)C(C)(C)C)[C@@H]1OC(=O)C(C)(C)C"
  assayed.system: "SU-DHL-4 cells (diffuse large B-cell lymphoma)"
  pIC50: 8.70
- mol.smiles: "CCCCC(=O)OC[C@H]1O[C@@H](c2c(O)cc3oc4cc(O)c(O)cc4c(=O)c3c2OC(=O)CCCC)[C@H](OC(=O)CCCC)[C@@H](OC(=O)CCCC)[C@@H]1OC(=O)CCCC"
  assayed.system: "SU-DHL-4 cells (diffuse large B-cell lymphoma)"
  pIC50: 6.46

----------
Test system: SU-DHL-4 cells (diffuse large B-cell lymphoma)
Assay: Cell death inducing effect on SU-DHL-4 cells, trypan blue staining
Assay type: cell-based
Details: Homo sapiens; SU-DHL-4 (DLBCL), cell viability
pIC50: −log10 of the molar value.
Quick reference for pIC50 among some molecules
measurement.type: pIC50

- molecule: "CCCC(=O)OC[C@H]1O[C@@H](c2c(O)cc3oc4cc(O)c(O)cc4c(=O)c3c2OC(=O)CCC)[C@H](OC(=O)CCC)[C@@H](OC(=O)CCC)[C@@H]1OC(=O)CCC"
  assayed.system: "SU-DHL-4 cells (diffuse large B-cell lymphoma)"
  measurement.type: "pIC50"
  measured.result: 8.30
- molecule: "CCCC(=O)OC[C@H]1O[C@@H](c2c(O)cc3oc4cc(O)c(O)cc4c(=O)c3c2O)[C@H](OC(=O)CCC)[C@@H](OC(=O)CCC)[C@@H]1OC(=O)CCC"
  assayed.system: "SU-DHL-4 cells (diffuse large B-cell lymphoma)"
  measurement.type: "pIC50"
  measured.result: 8.70
- molecule: "O=c1c2cc(O)c(O)cc2oc2cc(O)cc(O)c12 [norathyriol, reference compound]"
  assayed.system: "SU-DHL-4 cells (diffuse large B-cell lymphoma)"
  measurement.type: "pIC50"
  measured.result: 4.73
- molecule: "CCCCO[C@@H]1[C@@H](OCCCC)[C@H](c2c(O)cc3oc4cc(O)c(O)cc4c(=O)c3c2O)O[C@H](COC(=O)CCC)[C@H]1OC(=O)CCC"
  assayed.system: "SU-DHL-4 cells (diffuse large B-cell lymphoma)"
  measurement.type: "pIC50"
  measured.result: 7.96
- molecule: "CCC(=O)OC[C@H]1O[C@@H](c2c(OC(=O)CC)cc3oc4cc(OC(=O)CC)c(OC(=O)CC)cc4c(=O)c3c2OC(=O)CC)[C@H](OC(=O)CC)[C@@H](OC(=O)CC)[C@@H]1OC(=O)CC"
  assayed.system: "SU-DHL-4 cells (diffuse large B-cell lymphoma)"
  measurement.type: "pIC50"
  measured.result: 6.11
- molecule: "C=CCOc1cc(O)cc2oc3cc(O)c(O)cc3c(=O)c12"
  assayed.system: "SU-DHL-4 cells (diffuse large B-cell lymphoma)"
  measurement.type: "pIC50"
  measured.result: 4.76
- molecule: "CCC(=O)OC[C@H]1O[C@@H](c2c(O)cc3oc4cc(O)c(O)cc4c(=O)c3c2O)[C@H](OC(=O)CC)[C@@H](OC(=O)CC)[C@@H]1OC(=O)CC"
  assayed.system: "SU-DHL-4 cells (diffuse large B-cell lymphoma)"
  measurement.type: "pIC50"
  measured.result: 7.07
- molecule: "CCCCC(=O)OC[C@H]1O[C@@H](c2c(O)cc3oc4cc(O)c(O)cc4c(=O)c3c2O)[C@H](OC(=O)CCCC)[C@@H](OC(=O)CCCC)[C@@H]1OC(=O)CCCC"
  assayed.system: "SU-DHL-4 cells (diffuse large B-cell lymphoma)"
  measurement.type: "pIC50"
  measured.result: 6.54

----------
Target: phospho-NIK (Homo sapiens, UniProt Q99558)
Construct: Proteins were extracted from these cell suspensions with cell lysate and used as samples; endogenous in cells; host or cells: KMS-28BM (myeloma)
Sequence (Q99558 whole entry): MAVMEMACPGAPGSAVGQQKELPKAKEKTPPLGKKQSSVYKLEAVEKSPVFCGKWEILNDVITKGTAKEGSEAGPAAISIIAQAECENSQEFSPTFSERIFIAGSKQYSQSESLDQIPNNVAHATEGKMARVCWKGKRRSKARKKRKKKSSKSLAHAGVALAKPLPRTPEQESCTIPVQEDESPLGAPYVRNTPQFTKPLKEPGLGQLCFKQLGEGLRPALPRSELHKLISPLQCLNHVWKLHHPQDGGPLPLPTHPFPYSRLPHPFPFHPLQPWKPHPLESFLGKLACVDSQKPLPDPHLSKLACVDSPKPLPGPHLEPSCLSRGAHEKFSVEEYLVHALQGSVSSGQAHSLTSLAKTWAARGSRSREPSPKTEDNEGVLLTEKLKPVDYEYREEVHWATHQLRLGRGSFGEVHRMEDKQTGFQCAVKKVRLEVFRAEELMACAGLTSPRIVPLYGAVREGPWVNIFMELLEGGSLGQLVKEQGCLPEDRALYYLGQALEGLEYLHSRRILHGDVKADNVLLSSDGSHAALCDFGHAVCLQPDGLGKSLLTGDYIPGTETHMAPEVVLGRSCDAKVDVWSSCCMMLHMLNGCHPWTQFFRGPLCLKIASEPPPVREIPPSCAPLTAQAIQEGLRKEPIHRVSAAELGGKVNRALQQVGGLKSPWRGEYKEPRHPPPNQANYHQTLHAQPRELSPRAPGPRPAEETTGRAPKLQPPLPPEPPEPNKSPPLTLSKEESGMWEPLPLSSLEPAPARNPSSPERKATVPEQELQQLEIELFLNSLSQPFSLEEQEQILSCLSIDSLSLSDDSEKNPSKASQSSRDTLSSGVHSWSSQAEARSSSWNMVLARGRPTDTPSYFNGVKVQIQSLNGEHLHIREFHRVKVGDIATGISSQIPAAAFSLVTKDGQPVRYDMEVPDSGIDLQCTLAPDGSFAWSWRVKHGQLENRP
Assay: Immunoblotting of phospho-NIK in KMS-28BM cells
Assay type: cell-based
Conditions: 72 h, vs control, 1 μM mangiferin 8a/M8, 1 μM norathyriol, 0.5 μM M7, 0.2 μM M9, 5 μM yk-7, 0.5 μM yk-8-3, 100 μM yk-8-1, 0.5 μM M19, M18, M11, 0.005 μM M16, M15, M14, 0.05 μM M12
measurement.type: phospho-NIK band density (anti-phospho-NIK antibody)

- mol.smiles: "O=c1c2cc(O)c(O)cc2oc2cc(O)cc(OCCO)c12"
  measured.result: "decrease in band density"
- mol.smiles: "CCCC(=O)OC[C@H]1O[C@@H](c2c(O)cc3oc4cc(O)c(O)cc4c(=O)c3c2OC(=O)CCC)[C@H](OC(=O)CCC)[C@@H](OC(=O)CCC)[C@@H]1OC(=O)CCC"
  measured.result: "decrease in band density"
- mol.smiles: "CCCC(=O)OC[C@H]1O[C@@H](c2c(O)cc3oc4cc(O)c(O)cc4c(=O)c3c2O)[C@H](OC(=O)CCC)[C@@H](OC(=O)CCC)[C@@H]1OC(=O)CCC"
  measured.result: "decrease in band density"

----------
Tested on: RPMI8226/B cells (bortezomib-resistant myeloma cell line)
Experiment: Cell death inducing effect on RPMI8226/B cells, trypan blue staining
Format: cell-based
Settings: Homo sapiens, RPMI-8226; RPMI8226/B (myeloma; bortezomib resistance), cell viability
pIC50: −log10 of the molar value.
Binary label based on pIC50 with cut-off 7: below gives criterion met, not below gives criterion not met.

- molecule: "CCCCC(=O)OC[C@H]1O[C@@H](c2c(O)cc3oc4cc(O)c(O)cc4c(=O)c3c2OC(=O)CCCC)[C@H](OC(=O)CCCC)[C@@H](OC(=O)CCCC)[C@@H]1OC(=O)CCCC"
  assayed.system: "RPMI8226/B cells (bortezomib-resistant myeloma cell line)"
  label: "criterion met"
- molecule: "CCCCO[C@@H]1[C@@H](OCCCC)[C@H](c2c(O)cc3oc4cc(O)c(O)cc4c(=O)c3c2O)O[C@H](COC(=O)CCC)[C@H]1OC(=O)CCC"
  assayed.system: "RPMI8226/B cells (bortezomib-resistant myeloma cell line)"
  label: "criterion not met"
- molecule: "O=c1c2cc(O)c(O)cc2oc2cc(O)cc(OCCO)c12"
  assayed.system: "RPMI8226/B cells (bortezomib-resistant myeloma cell line)"
  label: "criterion met"
- molecule: "CCCC(=O)OC[C@H]1O[C@@H](c2c(O)cc3oc4cc(O)c(O)cc4c(=O)c3c2O)[C@H](OC(=O)CCC)[C@@H](OC(=O)CCC)[C@@H]1OC(=O)CCC"
  assayed.system: "RPMI8226/B cells (bortezomib-resistant myeloma cell line)"
  label: "criterion not met"
- molecule: "C=CCOc1cc(O)cc2oc3cc(O)c(O)cc3c(=O)c12"
  assayed.system: "RPMI8226/B cells (bortezomib-resistant myeloma cell line)"
  label: "criterion met"
- molecule: "CCC(=O)OC[C@H]1O[C@@H](c2c(OC(=O)CC)cc3oc4cc(OC(=O)CC)c(OC(=O)CC)cc4c(=O)c3c2OC(=O)CC)[C@H](OC(=O)CC)[C@@H](OC(=O)CC)[C@@H]1OC(=O)CC"
  assayed.system: "RPMI8226/B cells (bortezomib-resistant myeloma cell line)"
  label: "criterion met"
- molecule: "O=c1c2cc(O)c(O)cc2oc2cc(O)cc(O)c12 [norathyriol, reference compound]"
  assayed.system: "RPMI8226/B cells (bortezomib-resistant myeloma cell line)"
  label: "criterion met"
